Molecular target: T1, C-terminally FLAG-tagged human Gas6 recombinant protein (hGas6-F) (human, UniProt Q14393 31-678, gamma-carboxylated glutamic acid residues in the Gla domain (producer cells co-express rat VKOR and human GGCX); positions not given)
T1 construct: also called human Gas6-F; human Gas6 protein
T1 sequence: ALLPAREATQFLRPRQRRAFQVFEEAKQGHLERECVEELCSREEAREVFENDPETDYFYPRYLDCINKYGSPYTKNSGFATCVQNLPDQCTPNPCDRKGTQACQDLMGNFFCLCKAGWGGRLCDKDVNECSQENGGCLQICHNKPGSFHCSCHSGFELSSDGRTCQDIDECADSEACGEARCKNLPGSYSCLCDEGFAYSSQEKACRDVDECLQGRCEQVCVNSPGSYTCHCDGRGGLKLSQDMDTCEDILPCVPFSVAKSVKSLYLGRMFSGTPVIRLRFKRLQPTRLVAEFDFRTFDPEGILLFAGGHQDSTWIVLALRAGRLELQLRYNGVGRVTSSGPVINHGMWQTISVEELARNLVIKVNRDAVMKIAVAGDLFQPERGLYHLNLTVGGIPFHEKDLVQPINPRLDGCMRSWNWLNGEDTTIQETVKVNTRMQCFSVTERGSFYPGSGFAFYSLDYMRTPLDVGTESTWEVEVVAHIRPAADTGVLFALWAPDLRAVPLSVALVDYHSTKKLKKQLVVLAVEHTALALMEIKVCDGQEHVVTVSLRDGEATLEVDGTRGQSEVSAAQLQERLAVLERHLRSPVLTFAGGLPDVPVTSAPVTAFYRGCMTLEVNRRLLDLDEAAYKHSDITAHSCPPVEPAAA
Test: SPR Biacore T100, captured antibody, Gas6 analyte, first test
MEASURED QUANTITY: kon

[
  {
    "BINDER": "hzKM5320 LV3HV8 antibody (antibody, V domains shown, Humanized; variant human IgG4 constant region (EU S228P, L235E, R409K), human kappa; also called A-15) VH: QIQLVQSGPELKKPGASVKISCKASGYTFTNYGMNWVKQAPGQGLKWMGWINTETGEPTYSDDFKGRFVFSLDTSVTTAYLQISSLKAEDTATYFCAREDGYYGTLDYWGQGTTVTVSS VL: DVVMTQSPDSLAVSLGERVTINCKASQSVSNDVAWYQQKPGQSPKVLIYYASNRYTGVPDRFSGSGSGTDFTFTISSLQAEDVAVYFCQQDYSSPWTFGQGTKLEIK",
    "MEASURED QUANTITY": "kon",
    "READING": "> 75600 M⁻¹ s⁻¹"
  },
  {
    "BINDER": "hzKM5321 LV7bHV7 antibody (antibody, V domains shown, Humanized; variant human IgG4 constant region (EU S228P, L235E, R409K), human kappa; also called B-20; LV7bHV7) VH: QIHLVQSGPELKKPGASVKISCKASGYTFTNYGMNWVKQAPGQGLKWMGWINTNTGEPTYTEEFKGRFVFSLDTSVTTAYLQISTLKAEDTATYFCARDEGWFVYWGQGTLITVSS VL: ETTVTQSPSSLSVSVGDRVTITCITSTDIDDDMNWYQQKPGKAPKLLISEGNTLRPGVPSRFSSSGSGTDFTFTISSTQPEDFADYYCLQTDSVPLTFGQGTKLEIK",
    "MEASURED QUANTITY": "kon",
    "READING": "> 107000 M⁻¹ s⁻¹"
  },
  {
    "BINDER": "hzKM5321 LV4HV0 antibody (antibody, V domains shown, Humanized; variant human IgG4 constant region (EU S228P, L235E, R409K), human kappa; also called B-07; LV4HV0) VH: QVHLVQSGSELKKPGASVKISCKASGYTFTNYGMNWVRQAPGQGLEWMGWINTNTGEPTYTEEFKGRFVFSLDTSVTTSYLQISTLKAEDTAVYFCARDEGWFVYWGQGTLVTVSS VL: ETTLTQSPSSLSVSTGDRVTITCITSTDIDDDMNWYQQKPGKAPKLLISEGNTLRPGVPSRFSGSGSGTDFTFTISSTQPEDFATYYCLQTDSVPLTFGQGTKVEIK",
    "MEASURED QUANTITY": "kon",
    "READING": "> 126000 M⁻¹ s⁻¹"
  },
  {
    "BINDER": "hzKM5321 LV3HV0 antibody (antibody, V domains shown, Humanized; variant human IgG4 constant region (EU S228P, L235E, R409K), human kappa; also called B-06; LV3HV0) VH: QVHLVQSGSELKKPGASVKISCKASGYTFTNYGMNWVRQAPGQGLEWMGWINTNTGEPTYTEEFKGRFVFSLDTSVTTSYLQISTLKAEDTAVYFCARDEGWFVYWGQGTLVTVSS VL: ETTLTQSPSSLSASTGDRVTITCITSTDIDDDMNWYQQKPGKAPKLLISEGNTLRPGVPSRFSGSGSGTDFTLTISSTQPEDFADYYCLQTDSVPLTFGQGTKVEIK",
    "MEASURED QUANTITY": "kon",
    "READING": "> 153000 M⁻¹ s⁻¹"
  },
  {
    "BINDER": "hzKM5320 LV2aHV0 antibody (antibody, V domains shown, Humanized; variant human IgG4 constant region (EU S228P, L235E, R409K), human kappa; also called A-05) VH: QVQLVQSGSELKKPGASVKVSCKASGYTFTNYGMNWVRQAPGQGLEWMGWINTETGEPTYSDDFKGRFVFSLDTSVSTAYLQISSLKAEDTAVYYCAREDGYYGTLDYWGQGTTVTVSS VL: DVVMTQSPDSLAVSLGERVTINCKASQSVSNDVAWYQQKPGQSPKLLIYYASNRYTGVPDRFSGSGSGTDFTLTISSVQAEDVAVYFCQQDYSSPWTFGQGTKLEIK",
    "MEASURED QUANTITY": "kon",
    "READING": "> 69100 M⁻¹ s⁻¹"
  },
  {
    "BINDER": "hzKM5321 LV1bHV0 antibody (antibody, V domains shown, Humanized; variant human IgG4 constant region (EU S228P, L235E, R409K), human kappa; also called B-04; LV1bHV0) VH: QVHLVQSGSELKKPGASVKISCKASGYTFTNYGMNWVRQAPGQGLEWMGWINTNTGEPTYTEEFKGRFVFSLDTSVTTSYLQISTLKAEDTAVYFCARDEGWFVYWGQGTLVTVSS VL: ETTLTQSPSSLSASVGDRVTITCITSTDIDDDMNWYQQKPGKAPKLLISEGNTLRPGVPSRFSGSGSGTDFTLTISSLQPEDFADYYCLQTDSVPLTFGQGTKVEIK",
    "MEASURED QUANTITY": "kon",
    "READING": "> 127000 M⁻¹ s⁻¹"
  },
  {
    "BINDER": "hzKM5320 LV5HV3c antibody (antibody, V domains shown, Humanized; variant human IgG4 constant region (EU S228P, L235E, R409K), human kappa; also called A-23) VH: QVQLVQSGPELKKPGASVKVSCKASGYTFTNYGMNWVKQAPGQGLKWMGWINTETGEPTYSDDFKGRFVFSLDTSVSTAYLQISSLKAEDTAVYYCAREDGYYGTLDYWGQGTTVTVSS VL: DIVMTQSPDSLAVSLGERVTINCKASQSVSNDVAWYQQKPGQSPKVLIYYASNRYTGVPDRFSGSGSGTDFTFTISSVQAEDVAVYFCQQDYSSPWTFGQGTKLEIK",
    "MEASURED QUANTITY": "kon",
    "READING": "> 77900 M⁻¹ s⁻¹"
  },
  {
    "BINDER": "hzKM5321 LV3HV7 antibody (antibody, V domains shown, Humanized; variant human IgG4 constant region (EU S228P, L235E, R409K), human kappa; also called B-16; LV3HV7) VH: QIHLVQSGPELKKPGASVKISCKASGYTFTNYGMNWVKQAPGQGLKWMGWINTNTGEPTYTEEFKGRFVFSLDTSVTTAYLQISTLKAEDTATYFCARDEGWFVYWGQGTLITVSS VL: ETTLTQSPSSLSASTGDRVTITCITSTDIDDDMNWYQQKPGKAPKLLISEGNTLRPGVPSRFSGSGSGTDFTLTISSTQPEDFADYYCLQTDSVPLTFGQGTKVEIK",
    "MEASURED QUANTITY": "kon",
    "READING": "> 101000 M⁻¹ s⁻¹"
  }
]

Task: Which kon value belongs to hzKM5321 LV6HV2a antibody (antibody, V domains shown, Humanized; variant human IgG4 constant region (EU S228P, L235E, R409K), human kappa; also called B-23; LV6HV2a) VH: QVHLVQSGSELKKPGASVKISCKASGYTFTNYGMNWVKQAPGQGLKWMGWINTNTGEPTYTEEFKGRFVFSLDTSVTTSYLQISTLKAEDTAVYFCARDEGWFVYWGQGTLVTVSS VL: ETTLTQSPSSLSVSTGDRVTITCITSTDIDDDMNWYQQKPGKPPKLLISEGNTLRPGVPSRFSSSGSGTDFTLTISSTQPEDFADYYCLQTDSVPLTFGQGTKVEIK ?
Output: > 102000 M⁻¹ s⁻¹

Task: Try this binder next: hzKM5320 LV5HV1 antibody (antibody, V domains shown, Humanized; variant human IgG4 constant region (EU S228P, L235E, R409K), human kappa; also called A-19) VH: QVQLVQSGSELKKPGASVKVSCKASGYTFTNYGMNWVRQAPGQGLKWMGWINTETGEPTYSDDFKGRFVFSLDTSVSTAYLQISSLKAEDTAVYYCAREDGYYGTLDYWGQGTTVTVSS VL: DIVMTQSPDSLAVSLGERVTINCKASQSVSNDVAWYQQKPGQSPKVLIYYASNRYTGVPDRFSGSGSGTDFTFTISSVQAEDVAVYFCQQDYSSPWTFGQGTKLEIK
Output: > 74100 M⁻¹ s⁻¹
